assay: Metabolic stability in mouse liver microsomes (MLM); assay type: in vitro ADME, mouse (CD-1); settings: CD-1, read-out: Metabolic Stability MLM t½
metric.name: half-life at 1 μM (h)
One number for each entry, in h.

If you can, please state the reported half-life at 1 μM value of `CC(C)(C)N1CCN(Cc2cc3nc(-n4c(C(F)F)nc5ccccc54)cc(N4CCOCC4)n3n2)CC1` .
6.3

* * *

test: Plasma protein binding, rat; format: in vitro ADME
metric.name: fraction unbound
Answers are plain numbers.

If you can, please state the reported fraction unbound value of CC(C)(C)N1CCN(Cc2cc3nc(-n4c(C(F)F)nc5ccccc54)cc(N4CCOCC4)n3n2)CC1 [Compound 6] .
0.18

* * *

target: PI3Kβ (Homo sapiens); construct: purchased Merck Millipore; assay: In vitro PI3K inhibition assay (ADP-Glo kinase assay), PI3Kβ; format: biochemical; details: ratio IC50 PI3Kβ / IC50 PI3Kδ
Sequence (P42338 whole entry, looked up): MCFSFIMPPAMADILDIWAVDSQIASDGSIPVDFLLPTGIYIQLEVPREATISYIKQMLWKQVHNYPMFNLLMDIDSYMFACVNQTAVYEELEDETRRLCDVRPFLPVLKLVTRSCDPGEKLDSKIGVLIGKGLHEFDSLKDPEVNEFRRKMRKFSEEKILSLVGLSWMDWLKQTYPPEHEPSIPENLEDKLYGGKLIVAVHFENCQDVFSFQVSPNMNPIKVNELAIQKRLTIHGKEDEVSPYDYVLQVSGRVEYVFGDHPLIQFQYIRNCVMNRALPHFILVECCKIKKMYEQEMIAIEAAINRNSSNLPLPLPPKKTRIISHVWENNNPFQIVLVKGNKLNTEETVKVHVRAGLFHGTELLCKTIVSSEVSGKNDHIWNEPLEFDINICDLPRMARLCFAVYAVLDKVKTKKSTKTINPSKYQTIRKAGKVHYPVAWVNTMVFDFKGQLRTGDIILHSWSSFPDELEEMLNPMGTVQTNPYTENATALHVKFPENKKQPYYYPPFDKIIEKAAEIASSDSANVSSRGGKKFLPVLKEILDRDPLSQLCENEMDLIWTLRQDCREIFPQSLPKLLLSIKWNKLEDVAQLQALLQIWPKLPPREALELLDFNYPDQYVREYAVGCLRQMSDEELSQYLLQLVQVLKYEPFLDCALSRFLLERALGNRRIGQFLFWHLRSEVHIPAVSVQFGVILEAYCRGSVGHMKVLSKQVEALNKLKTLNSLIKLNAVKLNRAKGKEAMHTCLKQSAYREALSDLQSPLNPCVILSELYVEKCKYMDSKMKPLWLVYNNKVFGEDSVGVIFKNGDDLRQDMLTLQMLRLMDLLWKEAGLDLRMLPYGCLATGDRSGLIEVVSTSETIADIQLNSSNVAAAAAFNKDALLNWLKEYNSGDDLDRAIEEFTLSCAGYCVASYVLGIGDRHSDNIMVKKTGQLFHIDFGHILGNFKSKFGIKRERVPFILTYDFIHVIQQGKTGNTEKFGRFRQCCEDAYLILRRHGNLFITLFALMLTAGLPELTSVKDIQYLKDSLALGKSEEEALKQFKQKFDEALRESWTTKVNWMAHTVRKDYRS
metric.name: Fold Selectivity β/δ
Numbers only.

Here is how some compounds turned out for Fold Selectivity β/δ.
>  <query.smiles>
O=C(C1CC1)N1CCN(Cc2cc3nc(-n4c(C(F)F)nc5ccccc54)cc(N4CCOCC4)n3n2)CC1

>  <Fold Selectivity β/δ>
1973

$$$$
>  <query.smiles>
Cc1nc2ccccc2n1-c1cc(N2CCOCC2)n2nc(CN3CCC(C(C)(C)O)CC3)cc2n1

>  <Fold Selectivity β/δ>
222

$$$$

For every item below, please supply its Fold Selectivity β/δ.
1. CC(C)(C(N)=O)N1CCN(Cc2cc3nc(-n4c(C(F)F)nc5ccccc54)cc(N4CCOCC4)n3n2)CC1
2. CC(C)(C)N1CCN(Cc2cc3nc(-n4c(C5CC5)nc5ccccc54)cc(N4CCOCC4)n3n2)CC1
3. CC(C)(C)N1CCN(Cc2cc3nc(-n4c(C(F)F)nc5ccccc54)cc(N4CCOCC4)n3n2)CC1
4. CCc1nc2ccccc2n1-c1cc(N2CCOCC2)n2nc(CN3CCN(C(C)(C)C)CC3)cc2n1
5. Cc1nc2ccccc2n1-c1cc(N2CCOCC2)n2nc(CN3CCN(C(C)(C)C)CC3)cc2n1
6. CS(=O)(=O)N1CCN(Cc2cc3nc(-n4c(C(F)F)nc5ccccc54)cc(N4CCOCC4)n3n2)CC1

1444
242
1415
690
1264
316

* * *

assay: Plasma protein binding, mice; assay type: in vitro ADME; settings: mouse
metric.name: fraction unbound

If you can, please state the reported fraction unbound value of `CC(C)(C)N1CCN(Cc2cc3nc(-n4c(C(F)F)nc5ccccc54)cc(N4CCOCC4)n3n2)CC1` .
0.17

* * *

target: PI3Kγ (Homo sapiens, UniProt P48736)
Sequence (P48736 whole entry): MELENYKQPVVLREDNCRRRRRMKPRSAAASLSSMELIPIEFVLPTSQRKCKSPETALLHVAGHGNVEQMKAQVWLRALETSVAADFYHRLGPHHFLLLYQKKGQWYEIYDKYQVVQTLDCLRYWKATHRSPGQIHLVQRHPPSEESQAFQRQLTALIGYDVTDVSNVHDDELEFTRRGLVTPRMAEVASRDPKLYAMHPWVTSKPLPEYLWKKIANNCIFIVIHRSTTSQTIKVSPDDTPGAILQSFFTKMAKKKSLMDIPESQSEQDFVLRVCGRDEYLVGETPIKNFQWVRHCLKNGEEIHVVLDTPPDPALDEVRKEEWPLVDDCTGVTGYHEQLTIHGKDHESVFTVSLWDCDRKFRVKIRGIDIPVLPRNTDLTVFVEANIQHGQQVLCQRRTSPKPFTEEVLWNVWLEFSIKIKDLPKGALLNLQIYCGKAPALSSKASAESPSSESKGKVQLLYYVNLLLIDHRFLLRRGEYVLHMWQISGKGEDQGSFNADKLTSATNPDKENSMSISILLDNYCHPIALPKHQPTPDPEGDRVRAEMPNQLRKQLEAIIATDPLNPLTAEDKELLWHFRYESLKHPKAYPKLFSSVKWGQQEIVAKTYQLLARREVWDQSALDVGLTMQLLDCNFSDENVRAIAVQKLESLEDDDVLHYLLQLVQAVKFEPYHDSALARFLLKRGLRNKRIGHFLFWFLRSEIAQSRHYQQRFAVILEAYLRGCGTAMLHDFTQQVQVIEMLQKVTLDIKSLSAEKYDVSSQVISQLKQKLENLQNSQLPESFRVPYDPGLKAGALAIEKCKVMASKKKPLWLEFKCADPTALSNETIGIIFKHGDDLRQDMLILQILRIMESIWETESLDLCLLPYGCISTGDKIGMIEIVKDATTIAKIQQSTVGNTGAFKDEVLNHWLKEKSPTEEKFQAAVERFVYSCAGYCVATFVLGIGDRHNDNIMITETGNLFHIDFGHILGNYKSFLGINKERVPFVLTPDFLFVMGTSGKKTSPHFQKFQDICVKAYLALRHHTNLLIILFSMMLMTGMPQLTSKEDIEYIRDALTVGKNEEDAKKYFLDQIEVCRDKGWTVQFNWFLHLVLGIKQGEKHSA
One threshold, 4 µM, splits the recorded IC50 values: lower ones are y, equal or higher ones are n.

>  <compound>
NC1CCN(Cc2cc3nc(-n4c(C(F)F)nc5ccccc54)cc(N4CCOCC4)n3n2)C1 (stereo not drawn)

>  <category>
n

$$$$
>  <compound>
FC(F)c1nc2ccccc2n1-c1cc(N2CCOCC2)n2nc(CN3CCC(F)(F)CC3)cc2n1

>  <category>
y

$$$$
>  <compound>
O=C(c1cc2nc(-n3c(C(F)F)nc4ccccc43)cc(N3CCOCC3)n2n1)N1CCC(F)(F)CC1

>  <category>
n

$$$$

Please check: IC50 for `NC(=O)C1CCN(Cc2cc3nc(-n4c(C(F)F)nc5ccccc54)cc(N4CCOCC4)n3n2)CC1` , strictly under 4 µM or not?
y
